- Test system: T1, soluble human CD3 epsilon chain (human, UniProt P07766 23-126)
- T1 construct: also called CD3ε
- T1 sequence (P07766 23-126 limits assumed): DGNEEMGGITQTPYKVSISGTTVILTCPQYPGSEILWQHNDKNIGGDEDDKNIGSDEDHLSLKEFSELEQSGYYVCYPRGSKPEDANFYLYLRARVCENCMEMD
- Assay explanation: SPR
pKd: −log10 of the molar value.
Please enter met where pKd is greater than or equal to 8, and not met where it is lower.

>>> cat("TR01H083-E22Hh/none-Hi-Kn010G3/L0201-k0 (antibody, V domains shown, one-arm) VH: QVQLVESGGGLVQPGRSLRLSCAASGFTFSNAWMHWVRQAPGKGLEWVAQIKDKSNNYATYYAESVKGRFTISRADSKNSIYLQMNSLKTEDTAVYYCRYVHYAAGYGVDIWGQGTTVTVSS VL: DIVMTQSPLSLPVTPGEPASISCRSSQPPVHSNRNTYLHWYQQKPGQAPRLLIYKVSNRFSGVPDRFSGSGSGTDFTLKISRVEAEDVGVYYCGQGTQVPYTFGQGTKLEIKR")
"met"
>>> cat("TR01H040-E22Hh/none-Hi-Kn010G3/L0000vk1-k0 (antibody, V domains shown, one-arm) VH: QVQLVESGGGLVQPGRSLRLSCAASGFTFSNAWMHWVRQAPGKGLEWVAQIKDKSQNYATYYAESVKGRFTISRADSKNSIYLQMNSLKTEDTAVYYCRYVHYSASYGVDAWGQGTTVTVSS VL: DIQMTQSPSSLSASVGDRVTITCRSSQSLVHSNRNTYLHWYQQKPGKAPKLLIYKVSNRFSGVPSRFSGSGSGTDFTFTISSLQPEDIATYYCGQGTQVPYTFGQGTKVEIK")
"not met"
>>> cat("TR01H040-E22Hh/none-Hi-Kn010G3/L0248-k0 (antibody, V domains shown, one-arm) VH: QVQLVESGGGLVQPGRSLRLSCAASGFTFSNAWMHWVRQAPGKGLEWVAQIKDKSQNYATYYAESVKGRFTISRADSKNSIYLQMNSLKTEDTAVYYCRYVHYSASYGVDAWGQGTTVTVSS VL: DIVMTQSPLSLPVTPGEPASISCRPSQSPVHSNRNTYIQWYQQKPGQAPRLLIYKVSNRFSGVPDRFSGSGSGTDFTLKISRVEAEDVGVYYCYQGTQVPYTFGQGTKLEIK")
"not met"
